Below, each entry is listed alongside its reported NUCLEATED RED BLOOD CELLS.
# Organism: Rattus norvegicus
# Procedure text: DrugMatrix - Regimen: Daily Repeat
# Assay type: toxicity, organism-based, Sprague-Dawley
# Design: regimen Daily Repeat, gender Male, age 6-8 weeks
# Setup conditions: in vivo, po, 0 mg/kg, 72 h, tissue Blood, route oral GAVAGE, dose level Control, time 3 day, vehicle 100 % SALINE

Inquiry: What value of measured NUCLEATED RED BLOOD CELLS is listed for O=[As][O-].[Na+] [SODIUM ARSENITE] ?
Reply text: 0 /100WBC

Inquiry: What value of measured NUCLEATED RED BLOOD CELLS is listed for CCO ?
Reply text: 0 /100WBC

Inquiry: What value of measured NUCLEATED RED BLOOD CELLS is listed for CCN(CC)N=O ?
Reply text: 0 /100WBC

Inquiry: What value of measured NUCLEATED RED BLOOD CELLS is listed for Cc1ccnc2c1NC(=O)c1cccnc1N2C1CC1 ?
Reply text: 0.17 /100WBC

Inquiry: What value of measured NUCLEATED RED BLOOD CELLS is listed for CC(CN1c2ccccc2Sc2ccccc21)N(C)C (stereo not given) ?
Reply text: 0 /100WBC
